src = ChEMBL document CHEMBL1759892

Each entry below carries its recorded Ki.
system_under_test: Adenosine receptor A2a (Homo sapiens, UniProt P29274)
Sequence (P29274 whole entry): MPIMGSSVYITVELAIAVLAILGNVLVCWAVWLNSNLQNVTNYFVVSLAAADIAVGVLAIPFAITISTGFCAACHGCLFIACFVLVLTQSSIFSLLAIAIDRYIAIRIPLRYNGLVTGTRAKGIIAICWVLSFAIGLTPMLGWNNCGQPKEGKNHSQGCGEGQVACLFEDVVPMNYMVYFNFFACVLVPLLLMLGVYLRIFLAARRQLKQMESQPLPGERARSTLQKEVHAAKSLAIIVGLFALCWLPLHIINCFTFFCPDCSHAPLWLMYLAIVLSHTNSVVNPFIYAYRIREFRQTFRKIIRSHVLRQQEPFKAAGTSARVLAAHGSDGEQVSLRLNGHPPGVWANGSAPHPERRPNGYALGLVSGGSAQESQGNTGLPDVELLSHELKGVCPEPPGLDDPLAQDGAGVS
measurement_kind: Ki

INSERT INTO results (chemical_string, system_under_test, measurement_kind, observed_result) VALUES
  ('CCN(C(C)=O)c1ccc(OC)c2nc(NC(=O)[C@@H]3CCN(S(=O)(=O)c4cccc(C(F)(F)F)c4)C3)sc12', 'Adenosine receptor A2a (Homo sapiens, UniProt P29274)', 'Ki', '600 nM'),
  ('CCN(C(C)=O)c1ccc(OC)c2nc(NC(=O)[C@H]3CCN(C(=O)c4cccc(C(F)(F)F)c4)C3)sc12', 'Adenosine receptor A2a (Homo sapiens, UniProt P29274)', 'Ki', '710 nM'),
  ('CCN(C(C)=O)c1ccc(OC)c2nc(NC(=O)C3CCN(C(=O)c4cccc(C(F)(F)F)c4)CC3)sc12', 'Adenosine receptor A2a (Homo sapiens, UniProt P29274)', 'Ki', '230 nM'),
  ('CCN(C(C)=O)c1ccc(OC)c2nc(NC(=O)C3CCN(Cc4cccc(C(F)(F)F)c4)CC3)sc12', 'Adenosine receptor A2a (Homo sapiens, UniProt P29274)', 'Ki', '1000 nM');

---

system_under_test: Voltage-gated inwardly rectifying potassium channel KCNH2 (Homo sapiens, UniProt Q12809)
Sequence (Q12809 whole entry): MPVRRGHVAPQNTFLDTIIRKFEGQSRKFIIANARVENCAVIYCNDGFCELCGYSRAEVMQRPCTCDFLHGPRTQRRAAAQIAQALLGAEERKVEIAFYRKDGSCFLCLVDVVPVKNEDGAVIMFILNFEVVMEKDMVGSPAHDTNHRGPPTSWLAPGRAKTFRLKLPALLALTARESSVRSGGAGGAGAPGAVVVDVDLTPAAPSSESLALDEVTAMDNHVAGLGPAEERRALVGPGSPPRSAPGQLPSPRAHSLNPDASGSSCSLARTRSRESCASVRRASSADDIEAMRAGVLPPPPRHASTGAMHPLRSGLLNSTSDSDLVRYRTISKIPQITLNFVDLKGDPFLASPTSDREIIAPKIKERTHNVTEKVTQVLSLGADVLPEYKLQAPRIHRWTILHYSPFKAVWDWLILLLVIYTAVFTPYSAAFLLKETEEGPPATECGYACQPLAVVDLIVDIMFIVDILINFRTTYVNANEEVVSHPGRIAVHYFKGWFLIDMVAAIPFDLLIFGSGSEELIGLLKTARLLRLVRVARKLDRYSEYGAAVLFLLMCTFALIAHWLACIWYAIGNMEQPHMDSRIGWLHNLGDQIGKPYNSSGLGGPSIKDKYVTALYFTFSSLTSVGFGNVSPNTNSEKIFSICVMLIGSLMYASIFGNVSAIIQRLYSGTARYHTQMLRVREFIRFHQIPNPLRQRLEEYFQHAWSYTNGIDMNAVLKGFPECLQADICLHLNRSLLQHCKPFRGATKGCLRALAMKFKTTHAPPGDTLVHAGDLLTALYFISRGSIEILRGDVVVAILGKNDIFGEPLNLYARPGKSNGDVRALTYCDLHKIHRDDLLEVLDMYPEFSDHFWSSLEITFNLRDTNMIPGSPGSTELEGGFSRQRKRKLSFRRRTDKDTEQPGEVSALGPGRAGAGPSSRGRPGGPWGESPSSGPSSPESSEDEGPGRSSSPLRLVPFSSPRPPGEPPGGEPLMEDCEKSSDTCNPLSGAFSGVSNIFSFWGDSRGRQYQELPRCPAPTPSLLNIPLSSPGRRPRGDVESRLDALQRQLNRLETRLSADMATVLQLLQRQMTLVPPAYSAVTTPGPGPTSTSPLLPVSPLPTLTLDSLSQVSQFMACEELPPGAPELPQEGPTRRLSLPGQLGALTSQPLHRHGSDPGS
pIC50: −log10 of the molar value.
measurement_kind: pIC50

INSERT INTO measurements (chemical_string, system_under_test, observed_result) VALUES
  ('CCN(C(C)=O)c1ccc(OC)c2nc(NC(=O)c3ccnn3C)sc12', 'Voltage-gated inwardly rectifying potassium channel KCNH2 (Homo sapiens, UniProt Q12809)', '< 4.00');

---

What follows is a record of Ki for Adenosine receptor A1 (Homo sapiens).
measurement_kind: Ki (nM)

INSERT INTO assay_data (molecule, units_symbol, observed_result) VALUES
  ('CCN(C(C)=O)c1ccc(OC)c2nc(NC(=O)[C@H]3CCN(C(=O)c4cccc(C(F)(F)F)c4)C3)sc12', 'nM', 120),
  ('CCN(C(C)=O)c1ccc(OC)c2nc(NC(=O)[C@@H]3CC[C@H](NCc4cccc(C(F)(F)F)c4)C3)sc12 (relative stereo)', 'nM', 220),
  ('CCN(C(C)=O)c1ccc(OC)c2nc(NC(=O)C3CCN(C(=O)c4cccc(C(F)(F)F)c4)CC3)sc12', 'nM', 2);

---

system_under_test: Cytochrome P450 2D6 (Homo sapiens)
Sequence (P10635 whole entry): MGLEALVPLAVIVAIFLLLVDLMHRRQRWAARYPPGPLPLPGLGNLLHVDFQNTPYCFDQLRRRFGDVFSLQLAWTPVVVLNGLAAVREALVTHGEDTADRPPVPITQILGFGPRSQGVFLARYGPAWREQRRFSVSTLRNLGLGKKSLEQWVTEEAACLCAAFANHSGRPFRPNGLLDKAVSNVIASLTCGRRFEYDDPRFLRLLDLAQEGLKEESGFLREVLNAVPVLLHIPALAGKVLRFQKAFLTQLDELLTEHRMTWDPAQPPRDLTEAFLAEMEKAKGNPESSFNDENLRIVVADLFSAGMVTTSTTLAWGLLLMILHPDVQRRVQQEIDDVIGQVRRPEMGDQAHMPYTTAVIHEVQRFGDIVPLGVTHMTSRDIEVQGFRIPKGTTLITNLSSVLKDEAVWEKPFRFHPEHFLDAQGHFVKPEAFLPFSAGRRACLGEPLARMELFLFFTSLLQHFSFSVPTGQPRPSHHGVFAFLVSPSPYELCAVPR
pIC50: −log10 of the molar value.
measurement_kind: pIC50

INSERT INTO measurements (chemical_string, observed_result) VALUES
  ('CCN(C(C)=O)c1ccc(OC)c2nc(NC(=O)c3ccnn3C)sc12', '< 4.30');

---

system_under_test: Adenosine receptor A1 (Homo sapiens)
Sequence (P30542 whole entry): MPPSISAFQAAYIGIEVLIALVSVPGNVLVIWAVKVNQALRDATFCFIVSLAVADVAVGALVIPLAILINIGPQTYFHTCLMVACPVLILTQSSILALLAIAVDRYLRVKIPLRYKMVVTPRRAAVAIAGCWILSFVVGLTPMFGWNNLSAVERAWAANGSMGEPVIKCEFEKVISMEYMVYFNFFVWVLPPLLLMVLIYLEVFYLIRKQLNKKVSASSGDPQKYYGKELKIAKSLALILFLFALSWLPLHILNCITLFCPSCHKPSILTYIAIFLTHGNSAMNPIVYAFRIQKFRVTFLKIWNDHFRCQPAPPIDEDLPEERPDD
Each entry below carries its recorded Ki.
measurement_kind: Ki (nM)

INSERT INTO results (chemical_string, system_under_test, measurement_kind, units_symbol, observed_result) VALUES
  ('CCN(C(C)=O)c1ccc(OC)c2nc(NC(=O)[C@@H]3CCN(S(=O)(=O)c4cccc(C(F)(F)F)c4)C3)sc12', 'Adenosine receptor A1 (Homo sapiens)', 'Ki', 'nM', 220),
  ('CCN(C(C)=O)c1ccc(OC)c2nc(NC(=O)[C@@H]3CC[C@@H](NC(=O)c4cccc(C(F)(F)F)c4)C3)sc12', 'Adenosine receptor A1 (Homo sapiens)', 'Ki', 'nM', 31),
  ('CCN(C(C)=O)c1ccc(OC)c2nc(NC(=O)[C@H]3CC[C@@H](NS(=O)(=O)c4cccc(C(F)(F)F)c4)CC3)sc12', 'Adenosine receptor A1 (Homo sapiens)', 'Ki', 'nM', 46),
  ('CCN(C(C)=O)c1ccc(OC)c2nc(NC(=O)[C@@H]3CCN(C(=O)c4cccc(C(F)(F)F)c4)C3)sc12', 'Adenosine receptor A1 (Homo sapiens)', 'Ki', 'nM', 100);
